Assay: Approximate kinetic solubility in pharmaceutical co-solvents
Assay type: physicochemical
Conditions: aqueous with cosolvent or surfactant or cyclodextrin, thermodynamic from solid; 10% HP-β-CD in aqueous solution, no-pH adjustment, 7 days
Structures can show the parent of a compound that is named as a salt.
OUTCOME MEASURE: solubility kinetic at 7 days (µg/mL)
Write the value in µg/mL as a bare number.

-- ask What solubility kinetic at 7 days value was documented for this molecule, CCS(=O)(=O)N1CCN(c2ccc(Nc3ncc(C(N)=O)c(NC4CC4)n3)cc2)CC1 [Compound I HCl Form I] ?
-- reply 1930

---

Experiment: Approximate kinetic solubility in simulated biological fluids
Format: physicochemical
Details: FeSSIF (pH 5.0), about 37° C., equilibrated for 1 day
Structures can show the parent of a compound that is named as a salt.
OUTCOME MEASURE: solubility kinetic at 1 day
Please report the result as a number followed by the unit.

-- ask What solubility kinetic at 1 day value was documented for this compound, CCS(=O)(=O)N1CCN(c2ccc(Nc3ncc(C(N)=O)c(NC4CC4)n3)cc2)CC1 [Compound I HCl Form I] ?
-- reply 39 µg/mL
